- Measured target: T1, T cell IL-4 receptor (IL-4Rα/IL-2Rγ) (human, UniProt P24394 26-825; P31785 23-369)
- T1 sequence (looked up) 1: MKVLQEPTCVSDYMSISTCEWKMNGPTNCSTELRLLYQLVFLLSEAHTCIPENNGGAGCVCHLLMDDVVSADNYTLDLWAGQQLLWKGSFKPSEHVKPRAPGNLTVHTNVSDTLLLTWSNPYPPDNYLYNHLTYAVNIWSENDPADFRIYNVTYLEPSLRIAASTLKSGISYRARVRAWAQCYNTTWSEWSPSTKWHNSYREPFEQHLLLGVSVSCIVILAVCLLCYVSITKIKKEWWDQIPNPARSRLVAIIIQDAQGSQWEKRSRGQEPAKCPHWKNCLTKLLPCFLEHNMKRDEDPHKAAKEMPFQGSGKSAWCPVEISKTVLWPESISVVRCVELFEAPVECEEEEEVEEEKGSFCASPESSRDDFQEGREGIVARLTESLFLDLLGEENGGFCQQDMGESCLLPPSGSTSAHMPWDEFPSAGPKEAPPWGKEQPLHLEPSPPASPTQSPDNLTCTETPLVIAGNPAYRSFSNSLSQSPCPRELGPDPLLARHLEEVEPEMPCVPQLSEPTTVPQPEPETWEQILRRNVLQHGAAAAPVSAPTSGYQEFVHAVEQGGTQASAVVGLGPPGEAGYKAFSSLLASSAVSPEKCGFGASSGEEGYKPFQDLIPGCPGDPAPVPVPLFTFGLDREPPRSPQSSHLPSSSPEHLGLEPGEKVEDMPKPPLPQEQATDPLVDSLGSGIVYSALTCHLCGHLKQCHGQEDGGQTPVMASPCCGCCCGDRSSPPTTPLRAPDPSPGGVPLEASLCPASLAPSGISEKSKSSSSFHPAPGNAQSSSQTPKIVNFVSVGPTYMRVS
- T1 sequence (looked up) 2: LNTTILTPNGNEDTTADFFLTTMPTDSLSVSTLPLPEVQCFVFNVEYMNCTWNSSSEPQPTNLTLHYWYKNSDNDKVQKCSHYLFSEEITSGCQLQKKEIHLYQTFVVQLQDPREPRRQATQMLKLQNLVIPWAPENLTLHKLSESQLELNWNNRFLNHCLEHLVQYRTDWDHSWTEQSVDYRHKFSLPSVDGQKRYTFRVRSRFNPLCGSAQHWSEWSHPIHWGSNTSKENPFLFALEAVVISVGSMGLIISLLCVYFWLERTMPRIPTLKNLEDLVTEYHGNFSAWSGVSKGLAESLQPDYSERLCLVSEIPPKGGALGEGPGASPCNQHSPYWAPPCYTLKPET
- Assay overview: cell-based or functional assay
Readout kind: 1° T cell proliferation, EC50, pM (pM)

binder="IL-4 mutein R121W (ligand) HKCDITLQEIIKTLNSLTEQKTLCTELTVTDIFAASKNTTEKETFCRAATVLRQFYSHHEKDTRCLGATAQQFHRHKQLIRFLKRLDRNLWGLAGLNSCPVKEANQSTLENFLERLKTIMWEKYSKCSS" readout_kind="1° T cell proliferation, EC50, pM" unit_symbol=pM observed_value=150
binder="IL-4 mutein R121K (ligand) HKCDITLQEIIKTLNSLTEQKTLCTELTVTDIFAASKNTTEKETFCRAATVLRQFYSHHEKDTRCLGATAQQFHRHKQLIRFLKRLDRNLWGLAGLNSCPVKEANQSTLENFLERLKTIMKEKYSKCSS" readout_kind="1° T cell proliferation, EC50, pM" unit_symbol=pM observed_value=150

(1) IL-4 mutein R121N (ligand) HKCDITLQEIIKTLNSLTEQKTLCTELTVTDIFAASKNTTEKETFCRAATVLRQFYSHHEKDTRCLGATAQQFHRHKQLIRFLKRLDRNLWGLAGLNSCPVKEANQSTLENFLERLKTIMNEKYSKCSS
(2) IL-4 mutein T13D/R121E (ligand) HKCDITLQEIIKDLNSLTEQKTLCTELTVTDIFAASKNTTEKETFCRAATVLRQFYSHHEKDTRCLGATAQQFHRHKQLIRFLKRLDRNLWGLAGLNSCPVKEANQSTLENFLERLKTIMEEKYSKCSS
q: Between the entries labelled 1 and 2 , which has a larger 1° T cell proliferation, EC50, pM value on record? Identify your selection by its label.
a: 1
(1: 150 pM, 2: 100 pM)
